# Test system: MS2 coat protein
# method.notes: apparent Kd, MS2 coat protein; higher = weaker binding; RNA-MaP array; FMN 200 µM where present
# applied.conditions: ligand present: flavin mononucleotide; designed as: OFF switch for flavin mononucleotide

biosequence	tested.target	apparent Kd
CGGUGCUGAGGAUAUACAUGAGGAUCACCCAUGUGUGCCAGCUAGCUGACUGGCGCUUGUAGAAGGCAGUACUG	MS2 coat protein	0.0244 µM
AAAAAGUCAGGAUAUACAUGAGGAUCACCCAUGUAAAAAAAAGGGAAAAAAAAAAAGGGUAGAAGGGACGAAAA	MS2 coat protein	0.033 µM
GAGGUAUAAGGAUAUACAUAGAUACAGACACAUGUUCAAGUACAUGAGGAUCACCCAUGUAGAAGGUAUAUAUC	MS2 coat protein	0.0306 µM
UUUAUGUGAGGAUAUAGUACUCCUUCUAUUAUUAUUGAGUACUAGAAGGCACAUGAGGAUCACCCAUGUAGUAC	MS2 coat protein	0.0483 µM
CUUAUGUGAGGAUAUCAGUAGUAAAAAAAUAAAAUUACUACUGAGAAGGCACAUGAGGAUCACCCAUGUGCCUC	MS2 coat protein	0.0134 µM
GUCAGCUCGUGAGGAUAUACAACACAGCUUCGGCAGUGUAUUAAGAUCACAUGAGGAUCACCCAUGUAGAAGGCACGAGCUGAU	MS2 coat protein	0.209 µM
UGUCCAUAGCAGAAGGACAUGAAUAAAUAUGAAAACAUGAGGAUCACCCAUGUAGGAUAUGCUAUGGACUAAGAGCGAAAGCUC	MS2 coat protein	0.0493 µM
GUCCCGUCUAGCUUCAGCACAUGAGGAUCACCCAUGUCCUAGAGAAGGGCCUAGAGUUAUCAAAGGCAGGAUAUCUGCACAUGG	MS2 coat protein	0.0477 µM
AGCUGUGGCAGAGGAUAUACUACUAUAAUCCAUUGCAAAUAGCGAUGGACAUGAGGAUCACCCAUGUAGAAGGCUGUCACAGCA	MS2 coat protein	0.176 µM
UUUCCACAUGAGGAUCACCCAUGUCAGGAUAUUAGAUCUAUUUAUACAUAUAAUUAUUUAAGAAGGGACACUAA	MS2 coat protein	0.0169 µM
GGUGCUAUGUAGAAGGCAGAUCUGAUUCAGAUCUGAGGAUAUACAUGAGGAUCACCCAUGUUAUGCACCAGCACGAGAGUGCAG	MS2 coat protein	0.014 µM
AAAUUGGUAGAGGAUAUCGGAUAGGAUUUAUUGCGAGAAGGCUGCACAUGAGGAUCACCCAUGUUCUGUUGGGA	MS2 coat protein	0.28 µM
ACAUGAGGAUCACCCAUGUAUUCAUAGGAUAUACUACAUGAGUUUCAUUCAUGUAAACUUGUAUUGUAGAAGGAUGUUACAUGU	MS2 coat protein	0.0192 µM
UGCAUGCUAGGAUAUACGAAACAUUAGGGUUCUUUGUGUGAACAUGAGGAUCACCCAUGUAGAAGGAGCGUGCU	MS2 coat protein	0.0385 µM
UUGAGGUAGGAGAAGGACAGAGGCGGAAACACAAACAUGAGGAUCACCCAUGUAGGAUAUCCUACCUAACGAGGAUACCUCAAG	MS2 coat protein	0.0267 µM
